# Study System: LYP (Homo sapiens)
# Sequence (Q9Y2R2 2-309): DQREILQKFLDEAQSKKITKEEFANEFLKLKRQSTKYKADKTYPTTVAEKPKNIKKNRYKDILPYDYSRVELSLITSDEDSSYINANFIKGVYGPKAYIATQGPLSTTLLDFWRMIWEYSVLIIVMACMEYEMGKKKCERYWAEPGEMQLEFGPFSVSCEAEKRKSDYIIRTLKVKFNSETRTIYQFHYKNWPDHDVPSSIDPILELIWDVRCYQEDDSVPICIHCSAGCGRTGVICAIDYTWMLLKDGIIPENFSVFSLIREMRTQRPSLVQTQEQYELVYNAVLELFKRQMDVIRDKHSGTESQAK
# Assay Procedure: LYP inhibition assay with fluorogenic substrates
# Format: biochemical
# Stated Conditions: read-out: IC50 LYP (peptide 1); substrate peptide 1 10 µM, pH 6.5
pIC50: −log10 of the molar value.
Reported pIC50 values for the following compounds.
Value Type: pIC50

>>> reported("O=S(=O)(O)c1ccc([P+]([Au-][Cl])(c2ccccc2)c2ccc(S(=O)(=O)O)cc2)cc1")
6.07
>>> reported("N#CCC[P+](CCC#N)([Au-][Cl])c1ccccc1")
5.60
>>> reported("O=S(=O)(O)c1cccc([P+]([Au-][Cl])(c2ccccc2)c2ccccc2)c1")
5.72
>>> reported("CCP(CC)CC.[Au+].[Cl-]")
4.59
>>> reported("CP(C)c1ccccc1.[Cl][Au]")
5.70
>>> reported("[Cl][Au][PH](C1CCCCC1)(C1CCCCC1)C1CCCCC1")
4.21

###

# Study System: PTP-PEST (Homo sapiens, UniProt Q05209)
# Sequence (Q05209 2-323): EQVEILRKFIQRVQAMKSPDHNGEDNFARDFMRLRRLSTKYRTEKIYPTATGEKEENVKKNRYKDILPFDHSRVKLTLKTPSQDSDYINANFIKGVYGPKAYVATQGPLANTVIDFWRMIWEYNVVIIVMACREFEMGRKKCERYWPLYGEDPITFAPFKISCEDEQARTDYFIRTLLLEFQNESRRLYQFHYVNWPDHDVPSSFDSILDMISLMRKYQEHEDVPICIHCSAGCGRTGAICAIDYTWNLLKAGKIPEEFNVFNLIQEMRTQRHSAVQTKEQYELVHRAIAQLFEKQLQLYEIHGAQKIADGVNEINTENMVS
# Assay Procedure: PTP-PEST inhibition assay with fluorogenic substrates
# Format: biochemical
# Stated Conditions: read-out: IC50 PEST (DiFMUP); pH 6.5
Value Type: IC50 (µM)

>>> reported("O=S(=O)(O)c1ccc([P+]([Au-][Cl])(c2ccccc2)c2ccc(S(=O)(=O)O)cc2)cc1")
39
>>> reported("[Cl][Au][PH](c1ccccc1)(c1ccccc1)c1ccccn1")
76
>>> reported("O=S(=O)(O)c1cccc([P+]([Au-][Cl])(c2ccccc2)c2ccccc2)c1")
70

###

# Study System: UniProt:P18031
# Sequence (P18031 3-277 limits assumed): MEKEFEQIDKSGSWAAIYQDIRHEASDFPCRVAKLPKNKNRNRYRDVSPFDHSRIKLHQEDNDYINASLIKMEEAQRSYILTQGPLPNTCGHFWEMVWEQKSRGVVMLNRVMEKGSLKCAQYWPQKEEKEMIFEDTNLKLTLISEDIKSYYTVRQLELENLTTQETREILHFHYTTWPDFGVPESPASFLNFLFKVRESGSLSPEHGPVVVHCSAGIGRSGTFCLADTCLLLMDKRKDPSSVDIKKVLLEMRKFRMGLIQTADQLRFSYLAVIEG
# Assay Procedure: PTP1B inhibition assay with fluorogenic substrates
# Assay type: biochemical
# Stated Conditions: read-out: IC50 PTP1B (peptide 2); pH 7.1
Value Type: IC50 (µM)

>>> reported("O=S(=O)(O)c1ccc([P+]([Au-][Cl])(c2ccccc2)c2ccc(S(=O)(=O)O)cc2)cc1")
15

###

# Study System: PTP-PEST (Homo sapiens)
# Assay Procedure: PTP-PEST inhibition assay with fluorogenic substrates
# Assay type: biochemical
# Stated Conditions: read-out: IC50 PEST (DiFMUP); substrate DiFMUP 1.5 µM, pH 6.5
pIC50: −log10 of the molar value.
Value Type: pIC50

>>> reported("[Cl][Au][PH](C1CCCCC1)(C1CCCCC1)C1CCCCC1 [Compound 25, Tricyclohexylphosphine-Au(I)-Cl]")
4.35
>>> reported("CP(C)c1ccccc1.[Cl][Au] [Compound 13, Dimethylphenylphosphine-Au(I)-Cl]")
4.15

###

# Study System: TCPTP (Homo sapiens, UniProt P17706)
# Sequence (P17706 5-275 limits assumed): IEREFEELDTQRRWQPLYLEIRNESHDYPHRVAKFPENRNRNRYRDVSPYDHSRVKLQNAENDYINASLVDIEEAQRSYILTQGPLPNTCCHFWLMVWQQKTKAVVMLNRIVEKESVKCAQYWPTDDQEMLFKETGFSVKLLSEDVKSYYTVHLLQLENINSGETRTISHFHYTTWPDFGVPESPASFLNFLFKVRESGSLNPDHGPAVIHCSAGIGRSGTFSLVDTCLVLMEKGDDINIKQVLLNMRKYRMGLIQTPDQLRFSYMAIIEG
# Assay Procedure: TCPTP inhibition assay with fluorogenic substrates
# Format: biochemical
# Stated Conditions: read-out: IC50 TCPTP (DiFMUP); substrate DiFMUP 1.5 µM, pH 7.1
Value Type: IC50 (µM)

>>> reported("[Cl][Au][PH](c1ccco1)(c1ccco1)c1ccco1")
2.4
>>> reported("Fc1c(F)c(F)c([PH]([Au][Cl])(c2c(F)c(F)c(F)c(F)c2F)c2c(F)c(F)c(F)c(F)c2F)c(F)c1F")
6.7

###

# Study System: CD45 (Homo sapiens, UniProt P08575)
# Sequence (P08575 653-912 limits assumed): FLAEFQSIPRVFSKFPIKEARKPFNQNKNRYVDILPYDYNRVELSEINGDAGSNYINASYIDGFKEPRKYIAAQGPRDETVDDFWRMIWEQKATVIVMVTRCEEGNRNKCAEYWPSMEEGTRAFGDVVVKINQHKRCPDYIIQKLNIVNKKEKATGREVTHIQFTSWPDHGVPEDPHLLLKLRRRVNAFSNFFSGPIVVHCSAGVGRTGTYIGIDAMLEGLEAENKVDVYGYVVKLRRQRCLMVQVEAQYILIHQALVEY
# Assay Procedure: CD45 counterscreen
# Format: biochemical
# Stated Conditions: read-out: IC50 CD45 (DiFMUP); substrate DiFMUP
Value Type: IC50

>>> reported("[Cl][Au][PH](C1CCCCC1)(C1CCCCC1)C1CCCCC1 [Compound 25, Tricyclohexylphosphine-Au(I)-Cl]")
"> 70 µM"
>>> reported("N#CCC[P+](CCC#N)([Au-][Cl])c1ccccc1 [Compound 28]")
"> 70 µM"
>>> reported("CP(C)c1ccccc1.[Cl][Au] [Compound 13, Dimethylphenylphosphine-Au(I)-Cl]")
"> 100 µM"
>>> reported("CCP(CC)CC.[Au+].[Cl-] [Compound 39]")
"33 µM"
